Measured melting point accompanies every entry in the list below.

Field: example entries. Status: answers known.
• CC(C)n1nc(-c2c(-c3ccccc3)nn3ccc(OCc4cccnc4)cc23)ccc1=O [Example 20] = 145 to 146 °C
• CC(C)n1nc(-c2c(-c3ccccc3)nn3ccc(OCCc4ccccc4)cc23)ccc1=O [Example 9] = 154.5 to 155.5 °C

Q. Looking for the measured melting point of CC(C)n1nc(-c2c(-c3ccccc3)nn3ccc(OCCN4CCCCC4)cc23)ccc1=O [Example 16] , can you help?
A. 144 to 144.5 °C

Q. Likewise for CC(C)n1nc(-c2c(-c3ccccc3)nn3ccc(N4CCN(C(=O)N(C)C)CC4)cc23)ccc1=O [Example 109] ?
A. 160 to 161 °C

Each recorded value in this set is attributed to patent US20040110763A1.
